Ref: ChEMBL document CHEMBL1148381

biological target: Human immunodeficiency virus type 1 integrase (Human immunodeficiency virus 1); assay: Inhibitory activity against DNA strand transfer by HIV integrase
Sequence (Q7ZJM1 whole entry): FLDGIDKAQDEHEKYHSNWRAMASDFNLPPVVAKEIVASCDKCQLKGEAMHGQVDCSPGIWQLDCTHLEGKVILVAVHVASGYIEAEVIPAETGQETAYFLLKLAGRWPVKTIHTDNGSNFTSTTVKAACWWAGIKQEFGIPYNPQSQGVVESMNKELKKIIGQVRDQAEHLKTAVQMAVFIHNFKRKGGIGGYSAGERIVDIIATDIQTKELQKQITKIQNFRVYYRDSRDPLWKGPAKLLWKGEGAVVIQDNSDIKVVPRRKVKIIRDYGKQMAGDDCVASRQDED
Assign IC50 to each entry below.
The reply should be a number in µM, with the unit left off.

// query Notebook: pull reported IC50 for Human immunodeficiency virus type 1 integrase (Human immunodeficiency virus 1), entry O=C(Nc1ccc(F)cc1)c1cc(S(=O)(=O)Nc2nncn2-c2ccc(F)cc2)c(S)cc1Cl
// result 37.2

// query Notebook: pull reported IC50 for Human immunodeficiency virus type 1 integrase (Human immunodeficiency virus 1), entry O=C1NC(=S)SC1NS(=O)(=O)c1ccc(-c2ncccn2)cc1 (stereo not given)
// result 14.1

// query Notebook: pull reported IC50 for Human immunodeficiency virus type 1 integrase (Human immunodeficiency virus 1), entry CCCCn1cnnc1NS(=O)(=O)c1cc(C(=O)Nc2ccc(Cl)cc2)c(Cl)cc1S
// result 43.7

// query Notebook: pull reported IC50 for Human immunodeficiency virus type 1 integrase (Human immunodeficiency virus 1), entry Cc1cc(C(F)(F)F)cc(-n2nc(NS(=O)(=O)c3cc(C)c(Cl)cc3S)nc2N)n1
// result 6.31

// query Notebook: pull reported IC50 for Human immunodeficiency virus type 1 integrase (Human immunodeficiency virus 1), entry Cc1cc(S(=O)(=O)Nc2nnc3c4c(C)csc4ncn23)c(S)cc1Cl
// result 3.47
